The compounds listed here are annotated with their pKi.
Molecular target: UniProtKB P14842
Sequence (P14842 whole entry): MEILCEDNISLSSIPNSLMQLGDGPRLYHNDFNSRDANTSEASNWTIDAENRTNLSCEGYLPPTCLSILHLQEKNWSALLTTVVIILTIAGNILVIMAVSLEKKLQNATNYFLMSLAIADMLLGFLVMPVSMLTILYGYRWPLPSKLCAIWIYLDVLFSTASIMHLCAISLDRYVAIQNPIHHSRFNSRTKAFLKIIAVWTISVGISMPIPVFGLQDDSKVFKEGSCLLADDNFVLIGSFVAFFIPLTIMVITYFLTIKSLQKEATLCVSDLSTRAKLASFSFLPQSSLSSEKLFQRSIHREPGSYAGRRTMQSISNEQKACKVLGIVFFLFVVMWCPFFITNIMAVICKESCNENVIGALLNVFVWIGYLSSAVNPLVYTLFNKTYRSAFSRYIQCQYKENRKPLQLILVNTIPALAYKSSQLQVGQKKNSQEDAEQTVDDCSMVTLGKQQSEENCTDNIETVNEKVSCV
Assay: 5‐HT2A competition binding assay ([3H]ketanserin, frontal cortex membranes)
Set-up: from tissue; host or cells: rat (Sprague-Dawley) frontal cortex membranes
Settings: 1 nM [3H]ketanserin, 95% CI in brackets, read-out: 5‐HT2A Ki (95% CI)
// pKi: -log10(molar conc.)

compound=O=C(NCCCN1CCN(c2ccccc2C2=NCCS2)CC1)c1ccncc1 assayed_system="UniProtKB P14842" test_value=5.33
compound="O=C(NCCCN1CCN(c2cccc(C3=NCCS3)c2)CC1)C1CC2C=CC1C2 (centres unmarked) [FG‐17]" assayed_system="UniProtKB P14842" test_value=5.22
compound="O=C1C2C3C=CC(O3)C2C(=O)N1OCCCN1CCN(c2ccc(C3=NCCS3)cc2)CC1 (centres unmarked)" assayed_system="UniProtKB P14842" test_value=5.16
compound=O=C(NCCCN1CCN(c2cccc(C3=NCCS3)c2)CC1)c1ccncc1 assayed_system="UniProtKB P14842" test_value=5.35
compound="O=C1C2C3C=CC(O3)C2C(=O)N1OCCCN1CCN(c2cccc(C3=NCCS3)c2)CC1 (centres unmarked)" assayed_system="UniProtKB P14842" test_value=5.83
compound="O=C(NCCCN1CCN(c2ccccc2C2=NCCS2)CC1)C1CC2C=CC1C2 (centres unmarked) [FG‐16]" assayed_system="UniProtKB P14842" test_value=5.86

Exam item: Looking for the measured pKi of O=C(NCCCN1CCN(c2ccc(C3=NCCS3)cc2)CC1)C1CC2C=CC1C2 (centres unmarked) , can you help?
Marked response: 5.56

Exam item: Looking for the measured pKi of `O=C(NCCCN1CCN(c2ccccc2C2=NCCS2)CC1)c1ccccn1` , can you help?
Marked response: 5.50
